biological target: Nonstructural protein 3 (Zika virus); assay: Functional biochemical assay to identify treatments for viral infectious disease that targets Zika NS2B-NS3 protease. Utilizing a direct enzyme activity measurement method, reading the fluorescence intensity is used to characterize the relative potency of inhibitors as IC50.; parameters: species or system PRVABC59
// reported pIC50 per item
// pIC50: -log10(molar conc.)

Study these solved cases before continuing.
[
  {
    "compound": "CCOCCCN1Cc2ccc(NC(=O)c3cc(Cl)cc4[nH]ncc34)cc2C1",
    "pIC50": 4.48
  },
  {
    "compound": "C[C@H]1Oc2c(cccc2C(=O)Nc2ccc3c(c2)CNC3)NC1=O",
    "pIC50": 5.95
  },
  {
    "compound": "c1ccc(C2CCN(Cc3c[nH]c4ccccc34)CC2)nc1",
    "pIC50": 4.46
  },
  {
    "compound": "NCc1cccc(NC(=O)c2cc(NC(=O)OCc3ccccc3)cc(C(F)(F)F)c2)c1",
    "pIC50": 4.84
  },
  {
    "compound": "NCc1ccc(NC(=O)c2cc(Cl)cc(NC(=O)OCc3ccccc3)c2)cc1",
    "pIC50": 4.99
  }
]

Record `CC[C@H](Cc1nnn[nH]1)c1ccc(NC(=O)c2cc(Cl)cc(-n3cccc3)c2)cc1` , field pIC50: 4.28

Record `NCc1cccc(NC(=O)[C@@H](NC(=O)OCc2ccccc2)c2ccc(-c3ccccc3F)cc2)c1` , field pIC50: 5.07

* * *

// reported pIC50 per item
molecular target: Nonstructural protein 3 (Zika virus, UniProt A0A024AXB9); test: Functional biochemical assay to identify treatments for viral infectious disease that targets Zika NS2B-NS3 protease. Utilizing a direct enzyme activity measurement method, reading the fluorescence intensity is used to characterize the relative potency of inhibitors as IC50. Synthetic construct has been made based on Zika virus (strain PRVABC59) by Centre for Medicines Discovery, University of Oxford, and the assay has been performed by Stanford University.The protocol is publicly available: dx.doi.org/10.17504/protocols.io.x54v9r83zv3e/v1
Sequence (A0A024AXB9 whole entry): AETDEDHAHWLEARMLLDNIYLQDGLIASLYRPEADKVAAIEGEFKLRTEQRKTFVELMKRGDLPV
// pIC50: -log10(molar conc.)

[
  {
    "compound": "Cc1c(C=O)c2ccccn2c1C#N",
    "numeric-readout": 4.60
  },
  {
    "compound": "O=Cc1nc(-c2ccccc2Cl)n2ccccc12",
    "numeric-readout": 4.33
  },
  {
    "compound": "Cc1cc(NS(=O)(=O)c2ccc(S(=O)(=O)F)cc2)c[nH]c1=O",
    "numeric-readout": 4.88
  },
  {
    "compound": "CC[C@H]1CO[C@H](C)CN1c1ccc(C=O)cn1",
    "numeric-readout": 4.37
  }
]

Record `O=Cc1ccc(N2CCCCCC2)cc1` , field pIC50: 4.18

Record `O=Cc1ccc(N2CCC(C(=O)O)CC2)cc1` , field pIC50: 4.27

Record `CN(C)c1ccc(C=C(C#N)C(N)=O)cc1` , field pIC50: 4.51

* * *

biological target: Nonstructural protein 3 (Zika virus); assay: Functional biochemical assay to identify treatments for viral infectious disease that targets Zika NS2B-NS3 protease. Utilizing a direct enzyme activity measurement method, reading the fluorescence intensity is used to characterize the relative potency of inhibitors as IC50.; set-up: species or system PRVABC59
measure-name: IC50

[
  {
    "compound": "O=C1Nc2ccccc2[C@H]1N1CCC(c2nc3ccccc3s2)CC1",
    "IC50": "> 99.5 µM"
  },
  {
    "compound": "O=C(O)c1cc(Cl)ccc1NS(=O)(=O)c1ccc(N[C@H]2CCCOC2)nc1",
    "IC50": "> 99.5 µM"
  },
  {
    "compound": "CCC[C@H](Oc1ccc(Cl)cc1C)C(=O)Nc1cccc(CN)c1",
    "IC50": "> 99.5 µM"
  },
  {
    "compound": "O=C(Nc1cc(Cl)cc(C(=O)N2CCC[C@H]2C(=O)O)c1)OCc1ccccc1",
    "IC50": "> 99.5 µM"
  },
  {
    "compound": "Cc1ccc(S(=O)(=O)N2Cc3ccccc3C[C@@H](C(=O)Nc3cccc(CN)c3)C2)cc1",
    "IC50": "43.6 µM"
  },
  {
    "compound": "CC1=CC[C@H](c2cccc(-c3nn[nH]n3)c2)Nc2cc(Cl)ccc21",
    "IC50": "> 25 µM"
  }
]

Moving on to another compound below.
Record `O=C(Nc1cc(Cl)cc(C(=O)Nc2ncc3n2CCNC3)c1)OCc1ccccc1` , field IC50: > 99.5 µM

* * *

target: Nonstructural protein 3 (Zika virus); assay: Functional biochemical assay to identify treatments for viral infectious disease that targets Zika NS2B-NS3 protease. Utilizing a direct enzyme activity measurement method, reading the fluorescence intensity is used to characterize the relative potency of inhibitors as IC50.; parameters: species or system PRVABC59
pIC50: −log10 of the molar value.
measure-name: pIC50

Study these solved cases before continuing.
[
  {
    "compound": "Cc1nc(-c2ccc(Cl)cc2)sc1C(=O)Nc1cccc(CN)c1",
    "measure-name": "pIC50",
    "result": 4.04
  },
  {
    "compound": "CC[C@H](Cc1nnn[nH]1)c1ccc(NC(=O)c2cc(Cl)cc(C#N)c2)cc1",
    "measure-name": "pIC50",
    "result": "< 4.00"
  },
  {
    "compound": "O=C(NS(=O)(=O)C1CC1)c1cc(Cl)ccc1NS(=O)(=O)c1ccc(Oc2ccccc2Cl)cc1",
    "measure-name": "pIC50",
    "result": 4.71
  },
  {
    "compound": "CNC(=O)C[C@H](Nc1ccccn1)c1cc(Cl)cc(CN)c1",
    "measure-name": "pIC50",
    "result": "< 4.00"
  },
  {
    "compound": "O=C(O)CCCc1ccc(NC(=O)c2cc(Cl)cc(NC(=O)OCc3ccccc3)c2)cc1",
    "measure-name": "pIC50",
    "result": "< 4.00"
  },
  {
    "compound": "N#Cc1ccc(S(=O)(=O)Nc2ccc(Oc3ccccc3Cl)cc2)c(C(=O)O)c1",
    "measure-name": "pIC50",
    "result": "< 4.00"
  },
  {
    "compound": "O=C(Nc1cc(Cl)cc(C(=O)Nc2cccc3c2OC[C@H](C(=O)O)C3)c1)OCc1ccccc1",
    "measure-name": "pIC50",
    "result": "< 4.00"
  },
  {
    "compound": "O=C(O)c1cc2cc(-c3cc(Cl)c4[nH]c(=O)oc4c3)ccc2[nH]1",
    "measure-name": "pIC50",
    "result": 4.04
  }
]

Record `CC(C)(C)c1ccc2[nH]cc(CN3CCC(c4cscn4)CC3)c2c1` , field pIC50: < 4.00

Record `C[C@@H](O)c1cccc(N2CCC(c3nc(N)ncc3F)CC2)n1` , field pIC50: < 4.00

* * *

// reported pIC50 per item
target: Nonstructural protein 3 (Zika virus); assay: Functional biochemical assay to identify treatments for viral infectious disease that targets Zika NS2B-NS3 protease. Utilizing a direct enzyme activity measurement method, reading the fluorescence intensity is used to characterize the relative potency of inhibitors as IC50.; set-up: species or system PRVABC59
pIC50: −log10 of the molar value.

Record `O=c1ccn(Cc2cc(=O)n3ccccc3n2)c2ccsc12` , field pIC50: < 4.00

Record `NC(=O)c1cc(Cl)ccc1NS(=O)(=O)c1ccc(-c2ccc(F)cc2)cc1` , field pIC50: 4.18

Record `N[C@H]1CCN(c2cccc(CNC(=O)c3ccc4[nH]c(=O)[nH]c4c3F)n2)C1` , field pIC50: < 4.00

Record `N#C[C@H](Nc1ccc2c(c1)CNC2)c1ccnc(C(F)(F)F)c1` , field pIC50: < 4.60

Record `O=C(Nc1ccc2c(c1)CNC2)c1cc(Cl)ccc1OC1CCCC1` , field pIC50: 5.30

Record CCOC1CC(S(=O)(=O)N[C@H](C(=O)Nc2cccc(CN)c2)c2ccc(OCc3ccccc3)cc2)C1 (stereo partly specified) , field pIC50: < 4.00

* * *

// reported IC50 per item
target: Nonstructural protein 3 (Zika virus); assay: Functional biochemical assay to identify treatments for viral infectious disease that targets Zika NS2B-NS3 protease. Utilizing a direct enzyme activity measurement method, reading the fluorescence intensity is used to characterize the relative potency of inhibitors as IC50.; parameters: species or system PRVABC59

Study these solved cases before continuing.
[
  {
    "compound": "O=C1NCc2ccc(NC(=O)c3cc(Cl)cc4[nH]ncc34)cc21",
    "target-of-assay": "Nonstructural protein 3 (Zika virus)",
    "IC50": "> 99.5 µM"
  },
  {
    "compound": "CCn1c(=O)c(N2CC3(CCC3)C[C@@H]2C)nc2ccccc21",
    "target-of-assay": "Nonstructural protein 3 (Zika virus)",
    "IC50": "> 99.5 µM"
  },
  {
    "compound": "O=C(NCc1cccnc1)[C@H](Nc1ccc2c(c1)CNC2)c1cc(Cl)cc2[nH]ncc12",
    "target-of-assay": "Nonstructural protein 3 (Zika virus)",
    "IC50": "0.122 µM"
  },
  {
    "compound": "Cc1c[nH]nc1CN1CCC(c2cscn2)CC1",
    "target-of-assay": "Nonstructural protein 3 (Zika virus)",
    "IC50": "> 99.5 µM"
  }
]

Record `O=C(N[C@H](C(=O)NCc1cccc(CO)c1)c1ccc(OCc2ccccc2)cc1)OCc1ccccc1` , field IC50: > 99.5 µM

Record `O=C(Nc1ccc2c(n1)CNC2)c1cc(Cl)cc2[nH]ncc12` , field IC50: 0.608 µM

Record `O=C(N[C@@H](C(=O)NC1CCCCC1)c1ccc(OCc2ccccc2)cc1)OCc1ccccc1` , field IC50: > 99.5 µM

Record `Cn1c(C(=O)N2CCCc3ccc(C(F)F)cc32)cc2c1CCNC2` , field IC50: > 99.5 µM

Record `O=C(Nc1ccc2c(c1)CNC2)c1ccc(OCC(F)(F)F)nc1` , field IC50: 22.2 µM

Record `c1ccc(COc2ccc3c(CN4CCC(c5cscn5)CC4)c[nH]c3c2)cc1` , field IC50: > 99.5 µM

// data source = ChEMBL document CHEMBL5604062
